Target: human GPR17 short isoform (Homo sapiens, UniProt Q13304)
Sequence (Q13304 29-367): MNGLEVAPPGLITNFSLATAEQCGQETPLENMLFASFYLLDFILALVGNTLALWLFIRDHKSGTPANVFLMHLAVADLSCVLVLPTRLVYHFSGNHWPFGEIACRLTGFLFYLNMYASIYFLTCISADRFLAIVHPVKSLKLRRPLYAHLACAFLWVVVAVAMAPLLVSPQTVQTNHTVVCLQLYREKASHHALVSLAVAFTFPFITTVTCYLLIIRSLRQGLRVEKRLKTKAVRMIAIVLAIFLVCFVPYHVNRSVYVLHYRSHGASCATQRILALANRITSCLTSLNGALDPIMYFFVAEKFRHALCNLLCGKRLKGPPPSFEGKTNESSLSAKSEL
Experiment: GPR17 cAMP assay (hGPR17 cAMP, antagonist mode)
Details: CHO-K1 cells stably expressing human GPR17 short isoform; EC80 of agonist MDL29,951; forskolin 15 μM; TR-FRET cAMP
The compounds listed here are annotated with their pIC50.
By convention, pIC50 is the negative base-10 log of a molar concentration.

structure smiles: [2H]C([2H])(c1cnc(NS(=O)(=O)c2c[nH]c3c(F)c(Cl)ccc23)nc1OC)C(F)F
subject of test: human GPR17 short isoform (Homo sapiens, UniProt Q13304)
measurement: 6.97

structure smiles: [2H]C([2H])(F)C([2H])([2H])Oc1cnc(NS(=O)(=O)c2c[nH]c3c(F)c(Cl)ccc23)nc1OC
subject of test: human GPR17 short isoform (Homo sapiens, UniProt Q13304)
measurement: 7.07

structure smiles: [2H]C([2H])(c1cnc(NS(=O)(=O)c2c[nH]c3cc(F)ccc23)nc1OC)C(F)F
subject of test: human GPR17 short isoform (Homo sapiens, UniProt Q13304)
measurement: 7.03

structure smiles: [2H]C([2H])(F)C([2H])([2H])Oc1c(OC)nc(NS(=O)(=O)c2c[nH]c3nc(Br)ccc23)nc1OC
subject of test: human GPR17 short isoform (Homo sapiens, UniProt Q13304)
measurement: 7.38

Recorded pIC50 for `[2H]C([2H])(Oc1c(OC)nc(NS(=O)(=O)c2c[nH]c3nc(Br)ccc23)nc1OC)C(F)F` on human GPR17 short isoform (Homo sapiens, UniProt Q13304) was 7.09

* * *

Target: human GPR17 short isoform (Homo sapiens, UniProt Q13304)
Assay: GPR17 cAMP assay (hGPR17 cAMP, antagonist mode)
Settings: CHO-K1 cells stably expressing human GPR17 short isoform; EC80 of agonist MDL29,951; forskolin 15 μM; TR-FRET cAMP
readout kind: pIC50
By convention, pIC50 is the negative base-10 log of a molar concentration.

Below, each entry is followed by its recorded pIC50 result.
structure smiles: [2H]C([2H])(F)C([2H])([2H])Oc1c(OC)nc(NS(=O)(=O)c2c[nH]c3nc(Cl)ccc23)nc1OC
measurement: 7.20
//
structure smiles: [2H]C([2H])(c1cnc(NS(=O)(=O)c2c[nH]c3cc(Cl)ccc23)nc1OC)C(F)F
measurement: 7.26
//
structure smiles: [2H]C([2H])(c1c(OC)nc(NS(=O)(=O)c2c[nH]c3nc(C)ccc23)nc1OC)C(F)F
measurement: 7.24
//
structure smiles: [2H]C([2H])(c1c(OC)nc(NS(=O)(=O)c2c[nH]c3nc(Cl)ccc23)nc1OC)C(F)F
measurement: 7.43
//
structure smiles: [2H]C([2H])(CF)Oc1cnc(NS(=O)(=O)c2c[nH]c3c(F)c(Cl)ccc23)nc1OC
measurement: 6.98

pIC50 reading for `[2H]C([2H])(c1c(OC)nc(NS(=O)(=O)c2c[nH]c3nc(Br)ccc23)nc1OC)C(F)F` : 7.64

pIC50 reading for `[2H]C([2H])(c1cnc(NS(=O)(=O)c2c[nH]c3c(F)c(Br)ccc23)nc1OC)C(F)F` : 6.86
